Target: CRF1R
Test: cell-based or functional assay
Ends that are not written are not given here.
# CRF1R EC50 per record follows
Result Type: CRF1R EC50 (nM)

INSERT INTO measurements (binder, result_type, units_symbol, censor_symbol, test_result) VALUES
  ('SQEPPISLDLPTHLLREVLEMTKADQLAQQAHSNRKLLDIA-NH2 [SEQ ID NO 99]', 'CRF1R EC50', 'nM', '=', 100),
  ('ZGPPISIDLPFELLRKMIEIEKQEKEKQQAANNRLLLDTI (C-terminal amide) [SEQ ID NO 67]', 'CRF1R EC50', 'nM', '=', 44.2),
  ('SEEPPISLDLTFHLLREVLEMARAEQLAQQAHTNARILARV-NH2 [SEQ ID NO 161]', 'CRF1R EC50', 'nM', '>', 100),
  ('IVLSLDVPIGLLQELLEMARAEQLAQQAHSNRKLMEII-NH2 [SEQ ID NO 1]', 'CRF1R EC50', 'nM', '=', 783),
  ('IVLSLDVPIGLLQILLEQRAAREQATTNARILARV-NH2 [SEQ ID NO 136]', 'CRF1R EC50', 'nM', '>', 100),
  ('ZGPPISIDLPLYLLRKMIEIEKQEKEKQQAANNRLLLDT (C-terminal amide) [SEQ ID NO 81]', 'CRF1R EC50', 'nM', '=', 60.9);

Hey, just so you know, these numbers are from patent US20030148956A1.
